System: K4 kissing-loop RNA reporter;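 note: bound reporter read as fluorescence of individual clusters on recovered sequencing chips by microscopy, with normalized cluster intensities fitted with a binding model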
Experiment: apparent KD of K4 kissing-loop reporter; higher = weaker reporter binding
Details: Eterna round: R107; input ligand: tryptophan 2.4 mM
readoutType: apparent KD of K4 kissing-loop reporter (nM)
Give bare numbers, in nM.

Sample answers from the record:
// apparent KD of K4 kissing-loop reporter lookup, sequence = AGGCCCGGCCGAAAGGCCGGGCCAAGAGAUACCAGCAGCGAAAGCUGCCCUUGGCAGCUCACUUAGUGAUGUUAAGAGAUAAAUG [SS Theo A Tesla 1.2] , result: 279

// apparent KD of K4 kissing-loop reporter lookup, sequence = GUUACGCAUGGAAGGAGCGCUCUCCGGUUUAUUAACACAGUGAUGUUGUGAUUUUACCGAAAGCAGGUAGGUCGCCAUGUGUAAC [Ex Arginine B K4 12] , result: 372

// apparent KD of K4 kissing-loop reporter lookup, sequence = GUAGGAUGGUGCGAUACCAGACCUGCAGUGAUGUUGCGCCAUAGUGAGUGAUGUUCACCGGUCCCUUGGCAGCGCGUCCAUAAAG [Same State Theophylline B GF 17] , result: 882

// apparent KD of K4 kissing-loop reporter lookup, sequence = GCCGUAGAUGGAAGGAGCGAGUCCAAACCAUAUUGCUGAAAAUUCGAGUGAUGUUCGUAAGCUCAGGUAGGUCGCCAUCUACGGC , result: 187

Note: attention shifts to another entry.
// apparent KD of K4 kissing-loop reporter lookup, sequence = GAAGUACAGGCGGCCGCCACUAGUGAUGUUAGUGAUAAAAGAUAAAGUAUAUAUCGGCAUGUAGAUAGGACCGGGCCUGAUGGAG [uiiumullin] , result: 298

====

System: MS2 coat protein
Test: apparent KD of MS2 coat protein; designed switch direction (-1 OFF switch, 1 ON switch): -1; higher = weaker reporter binding
Conditions: input ligand: none
Mark not fulfilled for apparent KD of MS2 coat protein values under 20 nM, and fulfilled for everything at or above.

# example entries with known answers
Exercise: hey, is apparent KD of MS2 coat protein for this one >= 20 nM? ACACAGCGAGGAUAUACAUGAGGAUCACCCAUGUGGCGGCCGUUACGGUAGCGCUAGUGUAGAAGGCGCAUUGG [EX3 #36] (Eterna round: R97, puzzle: Exclusion 3)
Key: fulfilled

Exercise: hey, is apparent KD of MS2 coat protein for this one >= 20 nM? GAGAGACGAGGAUAUGCAGGAGUGCAGUCAGGUUCCAAAAUACAUGAGGAUCACCCAUGUAGAAGGUGUCAUCU [Eternabot (L2) Solution 26] (Eterna round: R97, puzzle: Exclusion 2)
Key: not fulfilled

Exercise: hey, is apparent KD of MS2 coat protein for this one >= 20 nM? AAAACAAACGAAGGAUAUGCGCGAAAAUGACUAGCAGAAGGUCGACACGGGCGGAUCCGACAUGAGGAUCACCCAUGUAAAACU [Tied] (Eterna round: R96, puzzle: Exclusion NG 1)
Key: fulfilled

Exercise: hey, is apparent KD of MS2 coat protein for this one >= 20 nM? UAUUUAGCAAGCAGAUCCUACAUGAGGAUCACCCAUGUGCUCUGAACGUACAGAAUUACUGUACGAGCUCGUCUUAU [Winner reversed engineered 29] (Eterna round: R97, puzzle: Sensor, turn-off variant 1)
Key: fulfilled

Exercise: hey, is apparent KD of MS2 coat protein for this one >= 20 nM? UAGAAAGGUAAGGAUAUCCAUGUGAAAUAAAGAGGAGAAGGUACCACAUGAGGAUCACCCAUGUGGCUCUCAAA [jl-ex6-4.54 Nando mod] (Eterna round: R97, puzzle: Exclusion 6)
Key: not fulfilled

Exercise: hey, is apparent KD of MS2 coat protein for this one >= 20 nM? AUCAGCUCGUGAGGAUAUACAUCACUGCUUCGGCAGUGUAUUAAGAUCACAUGAGGAUCACCCAUGUAGAAGGCACGAGCUGAU [ENG2/2-A3] (Eterna round: R96, puzzle: Exclusion NG 2)
Key: fulfilled

New cases:
Exercise: hey, is apparent KD of MS2 coat protein for this one >= 20 nM? AACAGUCUGGAGGAUAUGCUGGAUUAAAAUCUGGCAGAAGGCUGGACAUGAGGAUCACCCAUGUAAAUACUACC [Omei Ex6 A2a] (Eterna round: R97, puzzle: Exclusion 6)
Key: fulfilled

Exercise: hey, is apparent KD of MS2 coat protein for this one >= 20 nM? AAAUAAAGCCUAGGAUAUCCGGACGAUAACCCAGGAGAAGGAGGAUGUCGAAGAAGACAUGAGGAUCACCCAUGUGCGUCCUCU [Ancegege] (Eterna round: R96, puzzle: Exclusion NG 1)
Key: not fulfilled

Exercise: hey, is apparent KD of MS2 coat protein for this one >= 20 nM? GUGGCGGAUGCGAACAUGAGGAUCACCCAUGUACAGUCCCUACAGGAUAUCCGCAGUGCCUAGCAGGAGAAGGGUAGGAGCACA [Eternabot solution 40] (Eterna round: R96, puzzle: Exclusion NG 3)
Key: not fulfilled

Exercise: hey, is apparent KD of MS2 coat protein for this one >= 20 nM? CGAUGUGGAGUGAGGAUAUCGUGUUCGAAAGAACGUGAGAAGGCACAUGAGGAUCACCCAUGUGAUACAUGUCG [Omei Ex4B A16] (Eterna round: R97, puzzle: Brourd's mod of Exclusion 4)
Key: fulfilled

Exercise: hey, is apparent KD of MS2 coat protein for this one >= 20 nM? AUUAUGUGAGGAUAUUAGUAGUAAAUAAAUAAAAUUAUUACUGAGAAGGCACAUGAGGAUCACCCAUGUUCCUU [Salish 062 v6] (Eterna round: R97, puzzle: Exclusion 4)
Key: fulfilled

Exercise: hey, is apparent KD of MS2 coat protein for this one >= 20 nM? GUCACAUGGGUAUAGGAUCACAUGAGGAUCACCCAUGUGACUAACAAGCUUUUUGCUCGUCUUAUGUCUAUGUGAAG [Stov1/18-A1] (Eterna round: R97, puzzle: Sensor, turn-off variant 1)
Key: fulfilled

====

Tested on: MS2 coat protein
Experiment: apparent KD of MS2 coat protein; higher = weaker reporter binding
Settings: Eterna round: R107; input ligand: tryptophan 2.4 mM
For each entry below, report its apparent KD of MS2 coat protein value.
Numbers only, in nM.

Sample answers from the record:
// apparent KD of MS2 coat protein lookup, sequence = AAAACACAUGAGGAUCACCCAUGUCAUGAUACCAGUCAACAUGAGGACCCUUGGCAGCAUAAAAUGGGUAACAUGAGGAUCACCC [AstrosEXyTheA#1] , result: 50.5

// apparent KD of MS2 coat protein lookup, sequence = GGACUAACCUGAAGGAGCGGCACGCAGAAACUGCAAAUUCCUCCACACGAGGAUCACCCGUGUCAGGUAGGUCGCAGGUUAGUCG [ArgBX 28] , result: 20.3

Note: attention shifts to another entry.
// apparent KD of MS2 coat protein lookup, sequence = AUCAUGGCCAUCGAUACCAGCUACAUGAGGAUCACCCAUGUAAACGGCGCGGUGAGAUGUAGCCCUUGGCAGCGAAGGGUCAAGG [Beonrexe] , result: 19.6

====

For each entry below, report its apparent KD of MS2 coat protein value.
Tested on: MS2 coat protein
Experiment: apparent KD of MS2 coat protein; designed switch direction (-1 OFF switch, 1 ON switch): -1; higher = weaker reporter binding
Conditions: input ligand: microRNA oligo, concentration not stated
Answers are plain numbers, in nM.

Sample answers from the record:
// apparent KD of MS2 coat protein lookup, sequence = AGUUGGCGAGGAUAUACAUGAGGAUCACCCAUGUGAAAUCGAGAAAAAAUAGGGAAAAGUAGAAGGCGCAGACA [Ruby 63] (Eterna round: R96, puzzle: Exclusion 3) , result: 24.3

// apparent KD of MS2 coat protein lookup, sequence = CAUGAUUGACGAGGAUAUUGUUCUACAUGGCGACGAGAAGGCGUCUGUCACAUGAGGAUCACCCAUGUGAGUCUGGUGAAUGAG [Ex NG1 #83] (Eterna round: R96, puzzle: Exclusion NG 1) , result: 25.7

// apparent KD of MS2 coat protein lookup, sequence = GCUGCAAAUGUAGGAUAUCUGCACGUUUAGUGCAGAGAAGGACAUGAGGAUCACCCAUGUAGAUCAGCAGCAAUUAAUUUAAUU [ENG1/5-A2] (Eterna round: R96, puzzle: Exclusion NG 1) , result: 40.8

// apparent KD of MS2 coat protein lookup, sequence = UUUAUUUUGCAAGGAUAUGUUUAAUUUUAGUUUCCUUAUACAUGAGGAUCACCCAUGUUAUACUUACAGAAGGUGCAUAAUUUU [JR_ExcNG2_Sub037] (Eterna round: R96, puzzle: Exclusion NG 2) , result: 68.7

// apparent KD of MS2 coat protein lookup, sequence = ACAUGAGGAUCACCCAUGUCCGGUUGGUUUUCUCCGGCUGUUGAGGAUAUAGUCCGGUAUCCGCGCUAGAAGGUGAGGGUUGGC [Aenatbe mod 12] (Eterna round: R96, puzzle: Exclusion NG 3) , result: 125

Please give apparent KD of MS2 coat protein, item by item, for the list that follows.
1. UAAUAACAUGUAGGAUAUGCGUGGCGAAGCUAUGCAGAAGGACAUGAGGAUCACCCAUGUUAAAGCGUCUGCGUACAGAUGCGA [Mat - Exclusion NG 1 - Mod of JL - D97] (Eterna round: R96, puzzle: Exclusion NG 1)
2. UGUUGUCGCGUAGGAUAUUGUCAACAGGCAGUAGGAUAUGCGAAAGCAGAAGGACCGCCAACAGGCGAGAAGGACGGGACAACU [pwkr exNG2 2xF7 2xFMN.6] (Eterna round: R96, puzzle: Exclusion NG 2)
3. GCAGCAUAGUUUACUAACUGUUACAUGAGGAUCACCCAUGUCUAGGAUAUGGUCUGGAUUACAGGCCAGAAGGAGACAAGCUGC [Eli exng3 - 034] (Eterna round: R96, puzzle: Exclusion NG 3)
4. CCCAGUUAGGAAGGAUAUUGUACAUGAGGAUCACCCAUGUAAUAAAUGAGGAUCUCGGAUGUCUACAAGAAGGUCCGGAUAGGC [Ostracism 11 - Jieux - Exclusion NG 2] (Eterna round: R96, puzzle: Exclusion NG 2)
5. UAAAGUGAGUCCUCGCAGCAGCGUAGGGCGGUGCUAGCUACAUGAGGAUCACCCAUGUUUUCGCUCGUCCAGCACCU [Ceaorreti] (Eterna round: R96, puzzle: Sensor v2, turn-off variant 2)
6. UACAUGAGGAUCACCCAUGUUUUGUCGUGUAUGGUAUUUAUCUAGGAUAUCAAUUGAUUUAUUCAUGAGAAGGAGAAUAUUAAU [JMF's solution 64] (Eterna round: R96, puzzle: Exclusion NG 3)

Key:
[30.1, 35.6, 12.1, 34.3, 59.2, 31.4]
